Test system: HOP-62 NSCLC
Assay Text: NCI-60 one-dose screen, 48 h (100 = growth as untreated, 0 = no growth, -100 = all killed)
Condition Description: 10 µM unless noted
This is part of a sample that, as a whole, favours compounds with a hit. Of some 83,000 tested, about 20% had one in any assay. Calls of active or inactive are those of the source. The calls were made as follows: active = growth percent below 10; inactive = the rest.
Exercise: for every item that follows, state its recorded growth.

The value of growth recorded for O=C(N/N=C/c1ccc(Cl)cc1)c1[nH]c2ccc(Cl)cc2c1-c1ccccc1 when tested on HOP-62 NSCLC reads 23.9% (inactive)

The value of growth recorded for COc1cc(-c2nc3sccn3c2-c2ccnc(NCCNS(=O)(=O)c3ccccc3)n2)ccc1F when tested on HOP-62 NSCLC reads 73.2% (inactive)

The value of growth recorded for CSc1nc2ccccc2cc1/C=[N+](\[O-])c1ccccc1 when tested on HOP-62 NSCLC reads 67.9% (inactive)

The value of growth recorded for COc1ccc(-c2nc3cc(C(=O)NCc4ccccc4)ccc3n2C2CCCCC2)cc1 when tested on HOP-62 NSCLC reads 90.1% (inactive)

The value of growth recorded for COCCNC(=O)Nc1ccc2nc(-c3cccs3)c(-c3cccs3)nc2c1 when tested on HOP-62 NSCLC reads 101% (inactive)

The value of growth recorded for O=C(C[C@]1(O)C(=O)Nc2ccccc21)c1cccc(C(F)(F)F)c1 when tested on HOP-62 NSCLC reads 78.8% (inactive)

The value of growth recorded for COc1ccc(CNc2c3ccccc3nc3ccccc23)cc1 when tested on HOP-62 NSCLC reads 53.9% (inactive)

The value of growth recorded for CCC(C)(C)C(=O)O[C@H]1C[C@@H](C)C=C2C=C[C@H](C)[C@H](CC[C@@H]3CC(SCCN)CC(=O)O3)[C@H]21 (stereo not given in full) when tested on HOP-62 NSCLC reads 98.9% (inactive)

The value of growth recorded for COc1ccc(-c2cc(-c3cccnc3)nc3sc4c(=O)[nH]c(-c5ccc(Cl)cc5)nc4c23)cc1OC when tested on HOP-62 NSCLC reads 88.3% (inactive)

The value of growth recorded for O=C(COc1ccc(-c2nc3cc(Cl)c(Cl)cc3[nH]2)cc1)N=Nc1c(O)[nH]c2ccc(Cl)cc12 when tested on HOP-62 NSCLC reads 89.9% (inactive)
